Target: human transferrin (human, UniProt P02787 20-698)
Sequence (P02787 20-698 limits assumed): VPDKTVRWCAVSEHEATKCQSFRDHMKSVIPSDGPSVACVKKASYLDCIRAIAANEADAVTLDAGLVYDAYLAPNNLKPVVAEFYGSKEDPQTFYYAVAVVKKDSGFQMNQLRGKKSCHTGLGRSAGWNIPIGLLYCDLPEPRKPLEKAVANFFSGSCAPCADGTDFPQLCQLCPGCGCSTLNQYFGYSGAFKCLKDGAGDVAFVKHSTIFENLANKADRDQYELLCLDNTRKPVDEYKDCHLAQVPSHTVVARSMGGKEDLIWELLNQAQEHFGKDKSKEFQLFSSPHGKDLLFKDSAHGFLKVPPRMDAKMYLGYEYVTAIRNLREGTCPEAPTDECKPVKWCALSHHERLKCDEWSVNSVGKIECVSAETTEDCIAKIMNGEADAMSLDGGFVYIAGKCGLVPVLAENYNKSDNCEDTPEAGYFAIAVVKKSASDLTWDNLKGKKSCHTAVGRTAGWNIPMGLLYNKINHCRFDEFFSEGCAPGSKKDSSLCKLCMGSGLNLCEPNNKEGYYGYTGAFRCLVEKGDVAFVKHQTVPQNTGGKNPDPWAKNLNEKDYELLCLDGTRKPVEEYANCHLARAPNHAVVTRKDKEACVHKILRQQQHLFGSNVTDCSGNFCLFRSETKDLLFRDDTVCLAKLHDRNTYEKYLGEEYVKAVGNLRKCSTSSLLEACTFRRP
Test: SPR, BIAcore T200, human transferrin amine-coupled to CM5 chip, sdAb injected
propertyMeasured: koff (s⁻¹)
Enter your answer as a number in s⁻¹; do not include the unit.

Input AS01299VH3a-A49 (VHH, Humanized variant of AS01299, C-terminal 6xHis tag) VHH: EVQLVESGGGLVQPGGSLRLSCAASGSIFSIATMAWYRQAPGKGLELVSGITRSGSTNYRDSVKGRFTISRDNSKNTMYLQMNSLRAEDTAVYYCTDYSSRYYHDYWGQGTLVTVSS . Output koff: 0.001

Input AS01299VH4-L47 (VHH, Humanized variant of AS01299, C-terminal 6xHis tag; also called AS01299VH4-L47-2) VHH: EVQLVESGGGLVQPGGSLRLSCAASGSIFSIATMAWYRQAPGKGLEWVSGITRSGSTNYRDSVKGRFTISRDNSKNTLYLQMNSLRAEDTAVYYCTDYSSRYYHDYWGQGTLVTVSS . Output koff: 0.0035

Input AS01299VH3a-M78 (VHH, Humanized variant of AS01299, C-terminal 6xHis tag) VHH: EVQLVESGGGLVQPGGSLRLSCAASGSIFSIATMAWYRQAPGKGLELVAGITRSGSTNYRDSVKGRFTISRDNSKNTLYLQMNSLRAEDTAVYYCTDYSSRYYHDYWGQGTLVTVSS . Output koff: 0.0012

Input AS01299VH3a-L47 (VHH, Humanized variant of AS01299, C-terminal 6xHis tag; also called AS01299VH3a-L47-2) VHH: EVQLVESGGGLVQPGGSLRLSCAASGSIFSIATMAWYRQAPGKGLEWVAGITRSGSTNYRDSVKGRFTISRDNSKNTMYLQMNSLRAEDTAVYYCTDYSSRYYHDYWGQGTLVTVSS . Output koff: 0.0025

Input AS01299VH3a (VHH, Humanized variant of AS01299, C-terminal 6xHis tag) VHH: EVQLVESGGGLVQPGGSLRLSCAASGSIFSIATMAWYRQAPGKGLELVAGITRSGSTNYRDSVKGRFTISRDNSKNTMYLQMNSLRAEDTAVYYCTDYSSRYYHDYWGQGTLVTVSS . Output koff: 0.0011

Input AS01274 sdAb (VHH, Llama sdAb made in E. coli with a C-terminal 6xHis tag; also called sdAb AS01274) VHH: QVQLVESGGGLVQPGGSLRLSCVASGSIASIATMAWYRQAPGQQRELVAGITRGGSTKYADSVKGRFTISRDNAKNTLYLQMNSLKPDDTAVYYCTDYSRKYYQDYWGQGTQVTVSS . Output koff: 0.0003

Input AS01274VHa (VHH, Humanized variant of AS01274, C-terminal 6xHis tag) VHH: EVQLVESGGGLVQPGGSLRLSCAASGSIASIATMAWYRQAPGKGLELVAGITRGGSTKYADSVKGRFTISRDNSKNTLYLQMNSLRAEDTAVYYCTDYSRKYYQDYWGQGTLVTVSS . Output koff: 0.0002

FYI, the data here is from patent US20220033481A1.
